Solubility in mineral oil values, listed per item
experiment: physchem

compound: Cc1cnc(NC(=O)C2=C(O)c3ccccc3S(=O)(=O)N2C)s1
Solubility in mineral oil: < 0.001%

compound: Cc1ncc([N+](=O)[O-])n1CCO
Solubility in mineral oil: < 0.01%

compound: CC(=O)N1CCN(c2ccc(OCC3COC(Cn4ccnc4)(c4ccc(Cl)cc4Cl)O3)cc2)CC1 (stereo not shown)
Solubility in mineral oil: < 0.01%

compound: CCCCC(=O)O[C@]1(C(=O)CO)[C@@H](C)C[C@H]2[C@@H]3CCC4=CC(=O)C=C[C@]4(C)[C@@]3(F)[C@@H](O)C[C@@]21C [Betamethasone valerate]
Solubility in mineral oil: < 0.01%
